# Method Description: Emulsion stability by TD-NMR droplet-size distribution
# Format: physicochemical
# Assay Context: 1 mM acid, day 14
Endpoint: effect on emulsion stability compared to 1% Na2SO4 brine

O=C(O)C1CCCC1 | stabilize the emulsions
O=C(O)[C@@H]1CCCN1 | stabilize the emulsions
O=C(O)C1CCCCC1 | stabilize the emulsions

---

# Method Description: Interfacial shear viscoelasticity, double-wall ring rheometer
# Format: physicochemical
# Assay Context: 1 mM acid in 1% Na2SO4 brine, GB oil, 25° C.; compared to the brine viscoelastic moduli
Endpoint: Fractional G″ (%)

Known Fractional G″ results, listed for orientation:
Cc1ccc(C(=O)O)cc1 [NA12, p-toluic acid] | 48.8
O=C(O)[C@@H]1CCCN1 [L-Proline, L-proline] | 47

1: O=C(O)C1CCCCC1 [NA18, cyclohexane carboxylic acid]
2: O=C(O)C1CCCC1 [NA14, cyclopentane carboxylic acid]
Given the listed records, identify the one among 1 and 2 with higher Fractional G″. Use the label to indicate which entry you chose.
2
